Below, each of the sequences is paired with its reported sensor-assay potency score (higher = more potent) value.
molecular target: ARPC4; test: pooled miR-30 sensor sort-seq; sequence = guide strand; conditions: shRNA; note: reference of the scale not given here
Answer as a number with no unit attached.

seq: TTGACTGACAGCTTCATCTCAC
recorded-number: 0.494

# get_value(readout='sensor-assay potency score (higher = more potent)', item= `TGTGTTTGTACATCTGCTCTGT` )
0.568

Name the reported sensor-assay potency score (higher = more potent) value associated with the sequence `TGTAACAGGAGCTCTTTGCTAC`
-0.241

Look up sensor-assay potency score (higher = more potent) for this sequence: `TTCACAGCAATGCTGACCCGGA`
-0.48

Sample `AAATCTTCTCGATCTCATCAGC` — what was its sensor-assay potency score (higher = more potent)?
-0.856

Bench note: what sensor-assay potency score (higher = more potent) did `TTTTCCTTCTCATTCCTGCTGA` show?
0.452

Entry under review: `TTTGCTACTCCTGACTTCCACT` . Reported sensor-assay potency score (higher = more potent)?
-1.07

Endpoint output: sensor-assay potency score (higher = more potent) of `TGTCGTTCCACAACCTGGGAGG` . Value?
-0.878

Look at this sequence and give its reported sensor-assay potency score (higher = more potent). `TTCATCTCACTGATCTCCTTGT`
0.358

Form field: reported sensor-assay potency score (higher = more potent) of `TTTCACAGCAATGCTGACCCGG`
-0.244

---

target: MYH14; assay: pooled miR-30 sensor sort-seq; sequence = guide strand; conditions: shRNA
property-label: sensor-assay potency score (higher = more potent)
Simply state the number, no unit and no words.

seq: TTGGTGTTTTCCGTCTTCCCAG
recorded-number: -1.05

Please report the recorded sensor-assay potency score (higher = more potent) for `TTCACCTTGGTAAACAGCCGCC` .
-0.755

For `TCTGGTCTCTTGCTCTAGCTGC` , what is its reported sensor-assay potency score (higher = more potent)?
-0.396

---

target: RASSF2; experiment: pooled miR-30 sensor sort-seq; sequence = guide strand; details: shRNA
sensor-assay potency score (higher = more potent) listing for selected sequences.
Respond using a number only.

Some solved entries appear below for comparison.
seq: TTCCCGATCTTCTTCCTCCTGG
target-desc: RASSF2
recorded-number: 0.559
//
seq: TCTGCTGACTTCTACATCCAGC
target-desc: RASSF2
recorded-number: -0.516

What value of measured sensor-assay potency score (higher = more potent) is listed for `TTTGTGTCTAAATGTTTCCATG` ?
-1.27

Entry `TTTAAGTACCGGCATCTCGAAC` : reported sensor-assay potency score (higher = more potent) = ?
-0.976

sensor-assay potency score (higher = more potent) lookup needed for `TTCTCCATTAGGAACACTTTGG` , thanks.
-1.02

---

Some sequences, each annotated with its measured sensor-assay potency score (higher = more potent).
target: KRBA2; assay: pooled miR-30 sensor sort-seq; sequence = guide strand; settings: shRNA
Reply with the value as a number alone.

seq: TTTAGCTTCTTTAACTTCCTTT
recorded-number: 0.674

seq: TTGCTTTCTACTAACTTTGTTA
recorded-number: 0.0117

seq: TGTGTCTCTGTAGCAATCCTTT
recorded-number: -1.24

seq: TAAGACAATAACTTCTTTGGTG
recorded-number: 0.507

With those in mind, consider the next sequence.
Entry `ATTGAGCTCATGAACAACCTGG` , system KRBA2: what sensor-assay potency score (higher = more potent) was measured?
-0.217
